tested on: Pichia kudriavzevii; experiment: Antifungal activity against Candida krusei Berkout KCCM 11655 after 1 day by broth dilution method; type: functional; conditions: KCCM 11655, 24 h
Listing: MIC of selected compounds
Your answer is read as µg/mL, so omit the unit and give the number.

Some entries whose results are on file:
* Nc1ccc(N)c2cnncc12 | 100
* Nc1cccc2cnncc12 | 100
* O=C1C(Cl)=C(Nc2cccc(Cl)c2)C(=O)c2cnncc21 | 25
* O=C1C(Cl)=C(Nc2cccc(C(F)(F)F)c2)C(=O)c2cnncc21 | 100
* O=C1C=C(Nc2ccc(F)cc2)C(=O)c2cnncc21 | 25

[ask] Lab note: need MIC with Pichia kudriavzevii for entry O=C1C=C(Nc2ccc(Br)cc2)C(=O)c2cnncc21 , please look it up.
[reply] 12.5

* * *

Listed here are compounds together with their documented MIC.
tested on: Candida albicans; test: Antifungal activity against Candida albicans Berkout KCCM 50235 after 1 day by broth dilution method; assay type: functional; details: KCCM 50235, 24 h
All answers are understood in µg/mL, so give the number only.

Some solved cases for reference:
- O=C1C(Cl)=C(Nc2cccc(Cl)c2)C(=O)c2cnncc21: 25
- O=C1C(Sc2cccc(Cl)c2)=C(Sc2cccc(Cl)c2)C(=O)c2cnncc21: 12.5
- O=C1C(Cl)=C(Nc2ccc(I)cc2)C(=O)c2cnncc21: 12.5
- O=C1C(Sc2ccc(F)c(F)c2)=C(Sc2ccc(F)c(F)c2)C(=O)c2cnncc21: 3.2
- O=C1C(Cl)=C(Nc2ccc(Br)cc2)C(=O)c2cnncc21: 25
- Cc1ccc(NC2=CC(=O)c3cnncc3C2=O)cc1: 6.3

Please find the next compound below.
[ask] Give its MIC value. Item: O=C1C(Cl)=C(Nc2ccc(F)cc2)C(=O)c2cnncc21
[reply] 50

* * *

tested on: Pichia kudriavzevii; experiment: Antifungal activity against Candida krusei Berkout KCCM 11655 after 1 day by broth dilution method; format: functional; conditions: KCCM 11655, 24 h
Readings of MIC for the listed compounds
Quick reminder: number only, in µg/mL, skip the unit.

• O=C1C(Sc2ccc(F)cc2)=C(Sc2ccc(F)cc2)C(=O)c2cnncc21 = 100
• O=C1C(Cl)=C(Nc2ccc(F)cc2)C(=O)c2cnncc21 = 50
• O=C1C(Cl)=C(Nc2ccc(I)cc2)C(=O)c2cnncc21 = 12.5
• O=C1C(Cl)=C(Nc2ccccc2)C(=O)c2cnncc21 = 25
• Cc1ccc(NC2=CC(=O)c3cnncc3C2=O)cc1 = 12.5

[ask] Request - read-out MIC | tested on Pichia kudriavzevii | compound O=C1C(Cl)=C(Nc2ccc(Br)cc2)C(=O)c2cnncc21
[reply] 25

[ask] Also COc1ccc(SC2=C(Sc3ccc(OC)cc3)C(=O)c3cnncc3C2=O)cc1 , if possible.
[reply] 100

[ask] Input Cc1ccc(NC2=CC(=O)c3cnncc3C2=O)cc1C
[reply] 50

* * *

system: Candida albicans; assay: Antifungal activity against Candida albicans Berkout KCCM 50235 after 1 day by broth dilution method; format: functional; settings: KCCM 50235, 24 h
# true (1) = MIC below 20 µg/mL (exclusive); false (0) = MIC at/above 20 µg/mL

- Nc1ccc(N)c2cnncc12: false (0)
- COc1ccc(NC2=CC(=O)c3cnncc3C2=O)cc1: true (1)
- O=C1C(Cl)=C(Nc2cccc(C(F)(F)F)c2)C(=O)c2cnncc21: false (0)

[ask] In the record for Nc1nc(=O)[nH]cc1F [FLUCYTOSINE] , is MIC less than 20 µg/mL?
[reply] false (0)

[ask] Input O=C1C(Cl)=C(Nc2ccccc2)C(=O)c2cnncc21
[reply] false (0)

[ask] Moving on to the next compound: Cc1ccc(NC2=CC(=O)c3cnncc3C2=O)cc1C
[reply] true (1)
